Target: T1, human proprotein convertase subtilisin kexin type 9 (self-cleaved, mature, secreted PCSK9) (human, UniProt Q8NBP7 31-692)
T1 construct: Self-cleavage means the pro-domain and the catalytic/C-terminal part are separate, associated polypeptides; also called huPCSK9; wild-type PCSK9
T1 sequence (Q8NBP7 other isoform, or with tags, fused parts or gaps): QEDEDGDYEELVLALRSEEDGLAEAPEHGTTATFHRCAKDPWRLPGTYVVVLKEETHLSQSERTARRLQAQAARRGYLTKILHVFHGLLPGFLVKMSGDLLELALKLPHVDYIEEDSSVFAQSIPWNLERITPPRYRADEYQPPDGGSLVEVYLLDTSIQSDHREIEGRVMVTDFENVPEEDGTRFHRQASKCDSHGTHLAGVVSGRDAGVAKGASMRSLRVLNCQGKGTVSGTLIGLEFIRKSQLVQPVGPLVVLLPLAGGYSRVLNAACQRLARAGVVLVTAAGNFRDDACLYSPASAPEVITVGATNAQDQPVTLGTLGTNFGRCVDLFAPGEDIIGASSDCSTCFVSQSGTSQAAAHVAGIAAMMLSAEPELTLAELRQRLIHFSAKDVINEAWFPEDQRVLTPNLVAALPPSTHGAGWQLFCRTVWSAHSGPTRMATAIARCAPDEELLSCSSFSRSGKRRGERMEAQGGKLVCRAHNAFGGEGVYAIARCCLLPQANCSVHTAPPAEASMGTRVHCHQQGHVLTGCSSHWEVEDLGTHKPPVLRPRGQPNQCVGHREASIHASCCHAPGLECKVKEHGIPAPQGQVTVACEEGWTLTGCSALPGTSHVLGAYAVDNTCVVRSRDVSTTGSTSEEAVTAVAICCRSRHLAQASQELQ
Experiment: ELISA, hybridoma supernatant on neutravidin-captured biotinylated PCSK9
measured_parameter: Late primary screen OD

Inquiry: Query: Late primary screen OD; subject: 27B2 (antibody, human IgG2, lambda, V domains shown, Fully human XenoMouse antibody; Tested as hybridoma supernatant, the VH ends '...TTVTV' without the final 'SS'; also called 27B2.6; L4/H4) VH: QVQLVESGGGVVQPGRSLRLSCAASGFTFSSYGMHWVRQAPGKGLEWVAAIWYDGSNKYYAESVKGRFTISRDNSKYTLYLQVNSLRAEDTAVYYCARRGGLAARPGGLDVWGQGTTVTVAS VL: SYELTQPPSVSVSPGQTISISCSGDKLGDKNACWYQQKPGQSPGLVIYQDSKRPLGIPARFSGSNSGNTATLTISGTQAMDEADYYCQAWDISTVVFGGGTKLTVLG
Reply text: 4.2 OD (450 nm)
